Tested on: HeLa
Experiment: Cytotoxicity against human HeLa cells after 48 hrs by Coulter counting analysis
Assay type: functional
Conditions: read-out: ED50 (the source's name)
Quantity kind: EC50 (µg/mL)

>>> observed("CCCCCCCCCCCCCCCCCCCC(=O)OC[C@H]1O[C@@H]2[C@@H](Oc3nc(=N)ccn32)[C@@H]1OC(=O)CCCCCCCCCCCCCCCCCCC.Cl")
2.5
>>> observed("CCCCCC(=O)OC[C@H]1O[C@@H]2[C@@H](Oc3nc(=N)ccn32)[C@@H]1OC(=O)CCCCC.Cl")
0.11
>>> observed("CCCCCCCC(=O)OC[C@H]1O[C@@H]2[C@@H](Oc3nc(=N)ccn32)[C@@H]1OC(=O)CCCCCCC.Cl")
0.1
>>> observed("CCCCCCCC/C=C/CCCCCCCC(=O)OC[C@H]1O[C@@H]2[C@@H](Oc3nc(=N)ccn32)[C@@H]1OC(=O)CCCCCCC/C=C/CCCCCCCC.Cl")
1.4
>>> observed("CC(=O)OC[C@H]1O[C@@H]2[C@@H](Oc3nc(=N)ccn32)[C@@H]1OC(C)=O.Cl")
0.2
>>> observed("Cl.N=c1ccn2c(n1)O[C@H]1[C@H](O)[C@@H](CO)O[C@H]12 [ANCITABINE HYDROCHLORIDE]")
0.06
>>> observed("CCCCCCCCCCC(=O)OC[C@H]1O[C@@H]2[C@@H](Oc3nc(=N)ccn32)[C@@H]1OC(=O)CCCCCCCCCC.Cl")
0.32
